Test system: A375
procedure-details: cells
Parameters: growth inhibition of A375 parental and resistant melanoma cells, dose-response curves
test-context: Homo sapiens, A-375, 96 h; read-out: Phendione IC50
assay-endpoint: pIC50
Notebook: values listed as pIC50 are -log10 of the concentration (mol/L).

**Q:** Recall the recorded pIC50 for O=C1C(=O)c2cccnc2-c2ncccc21 with A375 and state it.
**A:** 7.03

###

Tested on: A375 BRAFi resistant
procedure-details: cells
Set-up: growth inhibition of A375 parental and resistant melanoma cells, dose-response curves
test-context: Homo sapiens, A-375, 96 h; read-out: Phendione IC50
Experimental: Figure 2. Phendione is a small molecule inhibitor targeting PP2A. […] IC50s (micromolar) were calculated and is shown as an inset in each graph. […] (G) Quantification of cell apoptosis measured by Annexin V staining flow cytometry. Parental A375 and A375 BRAFi-resistant cells were treated with vehicle or increasing concentration of phendione as indicated in the panels for 24 h before apoptotic cells were measured by flow cytometry. […]
assay-endpoint: pIC50
// field semantics: pIC50 = negative decimal log of concentration (mol/L)

**Q:** Endpoint output: pIC50 of O=C1C(=O)c2cccnc2-c2ncccc21 [phendione, 1,10-phenanthroline-5,6-dione] . Value?
**A:** 6.95
